// MIC S. pneumo. 1095 lookup, one value per entry
- System: Streptococcus pneumoniae 1095
- Assay type: cell-based
- Condition: S. pneumoniae 1095 (ermB); microtiter broth dilution
Property: MIC S. pneumo. 1095

Compound	Observed Value
CCC1OC(=O)C(C)C(=O)C(C)C(OC2OC(C)CC(N(C)C)C2O)C(C)(OC)CC(C)C(=O)C(C)C2N(CC3CCCN3C(=O)c3ccc4nccnc4c3)C(=O)OC12C.O=CO (stereo not shown)	<0.06 µg/mL
CCC1OC(=O)C(C)C(=O)C(C)C(OC2OC(C)CC(N(C)C)C2O)C(C)(OC)CC(C)C(=O)C(C)C2N(CC3CCCN3C(=O)c3cccc4ccncc34)C(=O)OC12C (stereo not shown)	<0.06 µg/mL
CCC1OC(=O)C(C)C(=O)C(C)C(OC2OC(C)CC(N(C)C)C2O)C(C)(OC)CC(C)C(=O)C(C)C2N(CC3CCCN3C(=O)c3ccnc4ncsc34)C(=O)OC12C (stereo not shown)	<0.06 µg/mL
CCC1OC(=O)C(C)C(=O)C(C)C(OC2OC(C)CC(N(C)C)C2O)C(C)(OC)CC(C)C(=O)C(C)C2N(CC3CCN(Cc4cnc5ccccc5c4)CC3)C(=O)OC12C (stereo not shown)	>64.00 µg/mL
CCC1OC(=O)C(C)C(=O)C(C)C(OC2OC(C)CC(N(C)C)C2O)C(C)(OC)CC(C)C(=O)C(C)C2N(CC3CCN(Cc4ccno4)C3)C(=O)OC12C (stereo not shown)	>64.00 µg/mL
CCC1OC(=O)C(C)C(=O)C(C)C(OC2OC(C)CC(N(C)C)C2O)C(C)(OC)CC(C)C(=O)C(C)C2N(CC3CCN(Cc4c[nH]c(-c5ccccc5)n4)C3)C(=O)OC12C (stereo not shown)	4 µg/mL
CCC1OC(=O)C(C)C(=O)C(C)C(OC2OC(C)CC(N(C)C)C2O)C(C)(OC)CC(C)C(=O)C(C)C2N(CC3CCN(Cc4cnc(-c5ccccc5)[nH]4)CC3)C(=O)OC12C (stereo not shown)	>64.00 µg/mL
CC[C@H]1OC(=O)[C@H](C)C(=O)[C@H](C)[C@@H](O[C@@H]2O[C@H](C)C[C@H](N(C)C)[C@H]2O)[C@](C)(OC)C[C@@H](C)C(=O)[C@H](C)[C@H]2N(CC3(C)CN(C(=O)c4nc5ccccc5[nH]4)C3)C(=O)O[C@]12C.O=CO	0.25 µg/mL
CCC1OC(=O)C(C)C(=O)C(C)C(OC2OC(C)CC(N(C)C)C2O)C(C)(OC)CC(C)C(=O)C(C)C2N(CC3CCCN3C(=O)c3ccnc4ccccc34)C(=O)OC12C.O=CO (stereo not shown)	<0.06 µg/mL
CCC1OC(=O)C(C)C(=O)C(C)C(OC2OC(C)CC(N(C)C)C2O)C(C)(OC)CC(C)C(=O)C(C)C2N(CC3CCCN3C(=O)c3cncc4ccccc34)C(=O)OC12C.O=CO (stereo not shown)	<0.06 µg/mL
CCC1OC(=O)C(C)C(=O)C(C)C(OC2OC(C)CC(N(C)C)C2O)C(C)(OC)CC(C)C(=O)C(C)C2N(CC3CCN(Cc4nc5ccccc5n4C)C3)C(=O)OC12C (stereo not shown)	2 µg/mL
CC[C@H]1OC(=O)[C@H](C)C(=O)[C@H](C)[C@@H](O[C@@H]2O[C@H](C)C[C@H](N(C)C)[C@H]2O)[C@](C)(OC)C[C@@H](C)C(=O)[C@H](C)[C@H]2N(CC3(C)CN(C(=O)c4cc5cccnc5[nH]4)C3)C(=O)O[C@]12C	<0.06 µg/mL
CCC1OC(=O)C(C)C(=O)C(C)C(OC2OC(C)CC(N(C)C)C2O)C(C)(OC)CC(C)C(=O)C(C)C2N(CC3CCCN3Cc3cccnc3OC)C(=O)OC12C (stereo not shown)	8 µg/mL
CC[C@H]1OC(=O)[C@H](C)C(=O)[C@H](C)[C@@H](O[C@@H]2O[C@H](C)C[C@H](N(C)C)[C@H]2O)[C@](C)(OC)C[C@@H](C)C(=O)[C@H](C)[C@H]2N(CC3(O)CN(Cc4ccno4)C3)C(=O)O[C@]12C	4 µg/mL
CCC1OC(=O)C(C)C(=O)C(C)C(OC2OC(C)CC(N(C)C)C2O)C(C)(OC)CC(C)C(=O)C(C)C2N(CC3CCCN3Cc3cccc4cnccc34)C(=O)OC12C (stereo not shown)	0.25 µg/mL
CCC1OC(=O)C(C)C(=O)C(C)C(OC2OC(C)CC(N(C)C)C2O)C(C)(OC)CC(C)C(=O)C(C)C2N(CC3CCCN3C(=O)c3ccc4ncccc4c3)C(=O)OC12C (stereo not shown) [10.06]	<0.06 µg/mL

* * *

- System: Streptococcus pneumoniae 1175
- Format: cell-based
- Condition: Streptococcus pneumoniae 1175; microtiter broth dilution
// MIC S. pneumo. 1175 lookup, one value per entry

Molecule	MIC S. pneumo. 1175
CCC1OC(=O)C(C)C(=O)C(C)C(OC2OC(C)CC(N(C)C)C2O)C(C)(OC)CC(C)C(=O)C(C)C2N(C3CN(S(=O)(=O)c4ccc(-n5ccnc5)c(F)c4)C3)C(=O)OC12C (stereo not drawn) [Example 3.81]	<0.06 µg/mL
CCC1OC(=O)C(C)C(=O)C(C)C(OC2OC(C)CC(N(C)C)C2O)C(C)(OC)CC(C)C(=O)C(C)C2N(C3CN(Cc4cccc(-c5ccccn5)c4)C3)C(=O)OC12C (stereo not drawn) [Example 1.43, 3-(pyridin-2-yl)-benzyl]	<0.06 µg/mL
CCC1OC(=O)C(C)C(=O)C(C)C(OC2OC(C)CC(N(C)C)C2O)C(C)(OC)CC(C)C(=O)C(C)C2N(C3CN(S(=O)(=O)c4ccc(-n5cccn5)c(C#N)c4)C3)C(=O)OC12C (stereo not drawn) [Example 3.50]	<0.06 µg/mL

* * *

- Test system: Haemophilus influenzae 1218
- Assay Comment: MIC, microtiter broth dilution (NCCLS M100-S14), H. influenzae 1218 (susceptible)
- Assay type: cell-based
- Condition: Haemophilus influenzae 1218
Property: MIC H. influenzae 1218 (µg/mL)

Compound	Property	Observed Value
CCC1OC(=O)C(C)C(=O)C(C)C(OC2OC(C)CC(N(C)C)C2O)C(C)(OC)CC(C)C(=O)C(C)C2N(CC3CN(C(=O)c4cnc5ccccc5c4)C3)C(=O)OC12C.O=CO (stereo not shown)	MIC H. influenzae 1218	2
CCC1OC(=O)C(C)C(=O)C(C)C(OC2OC(C)CC(N(C)C)C2O)C(C)(OC)CC(C)C(=O)C(C)C2N(C3CN(S(=O)(=O)c4ccc(OC)nc4)C3)C(=O)OC12C (stereo not shown)	MIC H. influenzae 1218	0.5
CCC1OC(=O)C(C)C(=O)C(C)C(OC2OC(C)CC(N(C)C)C2O)C(C)(OC)CC(C)C(=O)C(C)C2N(C3CN(S(=O)(=O)c4cccc(-c5ncco5)c4)C3)C(=O)OC12C (stereo not shown)	MIC H. influenzae 1218	0.12
CCC1OC(=O)C(C)C(=O)C(C)C(OC2OC(C)CC(N(C)C)C2O)C(C)(OC)CC(C)C(=O)C(C)C2N(C3CN(Cc4ccnc5nccnc45)C3)C(=O)OC12C (stereo not shown)	MIC H. influenzae 1218	1
CCC1OC(=O)C(C)C(=O)C(C)C(OC2OC(C)CC(N(C)C)C2O)C(C)(OC)CC(C)C(=O)C(C)C2N(CC3CN(C(=O)c4ccncc4)C3)C(=O)OC12C (stereo not shown)	MIC H. influenzae 1218	4
CCC1OC(=O)C(C)C(=O)C(C)C(OC2OC(C)CC(N(C)C)C2O)C(C)(OC)CC(C)C(=O)C(C)C2N(CC3CN(Cc4ccc5nccn5c4)C3)C(=O)OC12C (stereo not shown)	MIC H. influenzae 1218	0.62
CCC1OC(=O)C(C)C(=O)C(C)C(OC2OC(C)CC(N(C)C)C2O)C(C)(OC)CC(C)C(=O)C(C)C2N(C3CN(Cc4cccc(C#N)c4)C3)C(=O)OC12C (stereo not shown)	MIC H. influenzae 1218	0.25
